- Test system: KM mice
- Assay Summary: ED50 and LD50 test concerning anesthesia (sequential method) in mice
- Format: in vivo
- Condition Context: caudal vein injection, 3 mg/ml solution, confirmation test
Readout: Mouse LD50 (mg/kg)
Dear colleague, please return just the value in mg/kg, with no unit written.

Which value of Mouse LD50 has been reported for CC(C)c1cccc(C(C)C)c1OC(=O)C(F)CC(=O)[O-].[Na+] (centres unmarked) [Compound F7] in the records?
51.6

How about this compound: CC(C)c1cccc(C(C)C)c1OC(=O)C(F)CCC(=O)[O-].[Na+] (racemic) [Compound F1]
52.3

How about this compound: CC(C)c1cccc(C(C)C)c1OC(=O)[C@@H](F)CCOP(=O)([O-])[O-].[Na+].[Na+] [Compound G2]
60.4

How about this compound: CC(C)c1cccc(C(C)C)c1O [Propofol, reference compound]
38.4

How about this compound: CC(C)c1cccc(C(C)C)c1OC(=O)[C@H](F)CCN(C)C.Cl [Compound E2]
46.9

---

Field: dissociation percent. Provide a value for each of the molecules that follow.
- Assay Summary: In vitro dissociation of the water soluble taxane derivatives in blood plasma of rat
- Assay type: in vitro ADME, SD rats
- Condition Context: 37° C., 2 min
Counter-ions that a name gives are not always drawn.

Which value of dissociation percent has been reported for CC(=O)O[C@@]12CO[C@@H]1C[C@H](O)[C@@]1(C)C(=O)[C@H](O)C3=C(C)[C@@H](OC(=O)[C@H](OC(=O)C(F)(F)CCCCCN4CC4)[C@@H](NC(=O)OC(C)(C)C)c4ccccc4)C[C@@](O)([C@@H](OC(=O)c4ccccc4)[C@H]21)C3(C)C.CS(=O)(=O)O [Compound 14] in the records?
42.1%

How about this molecule: CC(=O)OC12COC1CC(O)C1(C)C(=O)C(O)C3=C(C)C(OC(=O)C(OC(=O)C(F)CCN(C)C)C(NC(=O)OC(C)(C)C)c4ccccc4)CC(O)(C(OC(=O)c4ccccc4)C21)C3(C)C.Cl (centres unmarked) [Compound 04]
58.6%

How about this molecule: CC(=O)O[C@H]1C(=O)[C@@]2(C)[C@H]([C@H](OC(=O)c3ccccc3)[C@]3(O)C[C@H](OC(=O)[C@H](OC(=O)[C@H](F)CCN(C)C)[C@@H](NC(=O)c4ccccc4)c4ccccc4)C(C)=C1C3(C)C)[C@]1(OC(C)=O)CO[C@@H]1C[C@@H]2O.Cl [Compound 01]
63.5%

How about this molecule: COC1C(=O)C2(C)C(OC)CC3OCC3(OC(C)=O)C2C(OC(=O)c2ccccc2)C2(O)CC(OC(=O)C(OC(=O)C(F)CCN(C)C)C(NC(=O)OC(C)(C)C)c3ccccc3)C(C)=C1C2(C)C.Cl (centres unmarked) [Compound 09]
47.8%

How about this molecule: CO[C@H]1C(=O)[C@]2(C)[C@@H](OC)C[C@H]3OC[C@@]3(OC(C)=O)[C@H]2[C@H](OC(=O)c2ccccc2)[C@]2(O)C[C@H](OC(=O)[C@H](OC(=O)[C@H](F)CCN(C)C)[C@@H](NC(=O)OC(C)(C)C)c3ccccc3)C(C)=C1C2(C)C [Compound 07, hydrochloride]
49.5%

How about this molecule: CC(=O)O[C@@]12CO[C@@H]1C[C@H](O)[C@@]1(C)C(=O)[C@H](O)C3=C(C)[C@@H](OC(=O)[C@H](OC(=O)[C@H](F)CCN(C)C)[C@@H](NC(=O)OC(C)(C)C)c4ccccc4)C[C@@](O)([C@@H](OC(=O)c4ccccc4)[C@H]21)C3(C)C.CS(=O)(=O)O [Compound C4]
59.2%

How about this molecule: CO[C@H]1C(=O)[C@]2(C)[C@@H](OC)C[C@H]3OC[C@@]3(OC(C)=O)[C@H]2[C@H](OC(=O)c2ccccc2)[C@]2(O)C[C@H](OC(=O)[C@H](OC(=O)[C@H](F)CCN(C)C)[C@@H](NC(=O)OC(C)(C)C)c3ccccc3)C(C)=C1C2(C)C.CS(=O)(=O)O [Compound C7]
49.7%

How about this molecule: COC1C(=O)C2(C)C(OC)CC3OCC3(OC(C)=O)C2C(OC(=O)c2ccccc2)C2(O)CC(OC(=O)C(OC(=O)C(CCN)C(F)F)C(NC(=O)OC(C)(C)C)c3ccccc3)C(C)=C1C2(C)C.O=S(=O)([O-])O.[Na+] (centres unmarked) [Compound 10]
45.2%
